target: T1, PSMA Fab (006 PSMA Fab); experiment: clonal phage ELISA; biotinylated PSMA Fab on neutravidin plate, blocking buffer alone; anti-M13 HRP detection;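 further: crude clonal phage supernatants added without washing to wells pretreated with blocking buffer with or without PSMA antigen, short incubation, then washed before detecting bound phage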
T1 construct: also called Anti-PSMA Fab; anti-PSMA Fab
# reported Phage binding ELISA signal, Anti-PSMA Fab; entries follow
// response body must contain only the number

See these solved cases before continuing.
HERSCIPAWMCWRQ (Row prints H E R S - I - A - - - W R Q) [Phage-2522] | 1.18
VDNWCTPMWMCAWI (Row prints V D N W - T - M - - - - W I) [Phage-2517] | 1.18
WEKWCTPSWMCSAG (Row prints W E K W - T - S - - - S A G) [Phage-2526] | 1.17
VPKWCTPAWMCTGL (Row prints V P K W - T - A - - - T - L) [Phage-2516] | 1.18
VITWCTPPWMCSGW (Row prints V I T W - T - P - - - S - W) [Phage-2525] | 1.17
EIKWCTPAWMCAIN (Row prints E I K W - T - A - - - - I N) [Phage-2514] | 1.18
VPIWCTPEWMCSGF (Row prints V P I W - T - E - - - S - -) [Phage-2519] | 1.18
LGKMCIPLWMCDGL (Row prints L G K M - I - L - - - D - L) [Phage-2512] | 1.19
AVKWCTPAWMCSGF (Row prints A V K W - T - A - - - S - -) [Phage-2524] | 1.18
DNKWCIPEWMCFAS (Row prints D N K W - I - E - - - F A S) [Phage-2521] | 1.18

query: Consider the binder PIPLCIPLWMCEER (Row prints P I P - - I - L - - - E E R) [Phage-2520] . State its measured Phage binding ELISA signal, Anti-PSMA Fab.
result: 1.18

query: Consider the binder IVRWCTPEWMCVGF (Row prints - V R W - T - E - - - V - -) [Phage-2523] . State its measured Phage binding ELISA signal, Anti-PSMA Fab.
result: 1.18

query: Consider the binder LTQWCIPQWMCEGS (Row prints L T Q W - I - Q - - - E - S) [Phage-2515] . State its measured Phage binding ELISA signal, Anti-PSMA Fab.
result: 1.18

query: Consider the binder IDPRCIPEWMCIGY (Row prints - D P R - I - E - - - I - Y) [Phage-2518] . State its measured Phage binding ELISA signal, Anti-PSMA Fab.
result: 1.18

query: Consider the binder SLELCRPEWMCVGF (Row prints S L E - - R - E - - - V - -) [Phage-2513] . State its measured Phage binding ELISA signal, Anti-PSMA Fab.
result: 1.19
